# key: entry, value: pIC50
Target: Phosphodiesterase 4 (Homo sapiens, UniProt P27815+Q08499+Q07343+Q08493)
Test: Inhibition of phosphodiesterase 4 (PDE4) in human neutrophils
Type: protein assay

# compound, value_operator, pIC50
measured = [
    ("COc1ccc(C2=NN(Cc3ccccc3)C(=O)C3CCCCC23)cc1OC (stereo not given)", "=", 8.1),
    ("COc1ccc(C2=NN(C3CCCCCC3)C(=O)C3CC=CCC23)cc1Cl (stereo not given)", "=", 8),
    ("O=C1C2CCCCC2C(c2cccc(Cl)c2)=NN1Cc1ccccc1 (stereo not given)", "<", 5),
    ("COc1ccc(C2=NN(C3CCCCCC3)C(=O)C3CC=CCC23)cc1OC (stereo not given)", "=", 9.1),
    ("CCOc1ccc(C2=NN(Cc3ccccc3)C(=O)C3CCCCC23)cc1OCC (stereo not given)", "=", 7.8),
    ("COc1ccc(C2=NN(C3CCCCCC3)C(=O)C3CC=CCC23)cc1OCCCCn1ccnc1 (stereo not given)", "=", 8.1),
    ("COc1ccc(C2=NN(C3CCCCCC3)C(=O)C3CC=CCC23)cc1OCCCCCCOc1ccc(C(=O)O)cc1 (stereo not given)", "=", 8.7),
    ("COc1ccc(C2=NN(C3CCCCCC3)C(=O)C3CC=CCC23)cc1OCCCCOc1ccc(-n2ccnc2)cc1 (stereo not given)", "=", 9.7),
    ("COc1ccc(C2=NN(C3CCCCCC3)C(=O)C3CC=CCC23)cc1OC(F)F (stereo not given)", "=", 8.8),
    ("COc1ccc(C2=NN(C3CCCCCC3)C(=O)C3CC=CCC23)cc1OCCCCN(C)C (stereo not given)", "=", 7.4),
]
